meta.source: patent US5747535A

Assay Summary: Test 2: Pharmacokinetic test in rats
Type: in vivo, rat
Details: rat, blood, po, 15 mg/kg, Rat-3, oral 15 mg/kg, 5 min; read-out: Blood concentration
Assay Endpoint: concentration at 5 min (ng/mL)
Write the value in ng/mL as a bare number.

Sure, the documented concentration at 5 min for CN(C(=O)[C@H](Cc1ccc(C(=N)NN)cc1)NS(=O)(=O)c1ccc2ccccc2c1)C1CCCC1 is 570

###

Assay Summary: Test 2: Pharmacokinetic test in dogs
Type: in vivo, dog
Details: dog, blood, po, 10 mg/kg, Dog-2, oral 10 mg/kg, 60 min; read-out: Blood concentration
Assay Endpoint: concentration at 1 h (ng/mL)
Field: numeric (ng/mL). Do not append units.

Please fill in: concentration at 1 h reported for CN(C(=O)[C@H](Cc1ccc(C(=N)NN)cc1)NS(=O)(=O)c1ccc2ccccc2c1)C1CCCC1 = 1310
